Assay: self-splicing fitness, log relative to wild type (ln ratio); higher = more splicing; Tetrahymena group I intron in knt gene, E. coli kanamycin selection, DiMSum; sequences stand for … in CUCUCU…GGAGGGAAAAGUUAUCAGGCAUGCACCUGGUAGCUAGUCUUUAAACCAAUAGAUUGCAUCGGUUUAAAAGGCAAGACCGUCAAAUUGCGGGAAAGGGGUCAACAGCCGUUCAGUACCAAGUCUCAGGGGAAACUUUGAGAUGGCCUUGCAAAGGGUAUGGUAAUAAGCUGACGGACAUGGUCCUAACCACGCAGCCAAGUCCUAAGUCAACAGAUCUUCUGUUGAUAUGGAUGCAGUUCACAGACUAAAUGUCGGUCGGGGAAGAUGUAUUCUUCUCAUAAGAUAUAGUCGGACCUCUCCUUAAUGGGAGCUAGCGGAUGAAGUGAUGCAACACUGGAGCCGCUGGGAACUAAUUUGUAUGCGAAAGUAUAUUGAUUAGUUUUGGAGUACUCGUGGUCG;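 note: selection with 25 µg/mL kanamycin versus none on LB agar overnight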
Conditions: 30 °C
For each of the sequences below, state its self-splicing fitness (ln).
Give bare numbers.

Solved cases below.
seq	self-splicing fitness (ln)
GUUAAGCAAUAUUACGUAAA	-1.45
UAGGAGCAAUAUUACGAUUA	-0.679
UCUGAGCAAUAUUACGGUGU	-2.79
CGACAGCAAUAUUACGACAC	-1.96

Please give self-splicing fitness (ln) for each item listed below.
1. GCGCAGCAAUAUUACGCUUC
2. ACGAAGCAAUAUUACGCGUU
3. AUUCAGCAAUAUUACGUACC
4. UUUCAGCAAUAUUACGUUUA
5. CACGAGCAAUAUUACGGUUU
6. GUUUAGCAAUAUUACGUAGC
7. ACGCAGCAAUAUUACGCCCC

Ans:
1. -1.97
2. -4.06
3. -0.843
4. -1.34
5. -3.79
6. -1.61
7. -0.51

Give measured self-splicing fitness (ln) for every item shown.
1. CGUCAGCAAUAUUACGAUAU
2. CGAAAGCAAUAUUACGGGCA
3. AGCAAGCAAUAUUACGGUAG

Ans:
1. -2.13
2. -1.85
3. -3.4

Please supply self-splicing fitness (ln) for each of the following items, keeping them in order.
1. GUGCAGCAAUAUUACGGCGU
2. UACAAGCAAUAUUACGGUCC

Ans:
-1.58
-1.38

###

Test: self-splicing fitness, log relative to wild type (ln ratio); higher = more splicing; Tetrahymena group I intron in knt gene, E. coli kanamycin selection, DiMSum; sequences stand for … in CUCUCU…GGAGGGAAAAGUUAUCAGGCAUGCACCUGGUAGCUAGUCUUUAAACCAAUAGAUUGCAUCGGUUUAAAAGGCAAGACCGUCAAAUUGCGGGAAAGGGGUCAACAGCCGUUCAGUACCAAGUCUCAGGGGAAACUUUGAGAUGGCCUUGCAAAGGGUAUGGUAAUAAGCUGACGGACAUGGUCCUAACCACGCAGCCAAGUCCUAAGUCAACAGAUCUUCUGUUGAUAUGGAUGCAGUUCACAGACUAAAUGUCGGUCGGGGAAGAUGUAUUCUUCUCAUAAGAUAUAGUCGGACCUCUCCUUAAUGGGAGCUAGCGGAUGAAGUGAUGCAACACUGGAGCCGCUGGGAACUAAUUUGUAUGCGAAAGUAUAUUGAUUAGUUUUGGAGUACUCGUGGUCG
Conditions: 30 °C
valueKind: self-splicing fitness (ln)
Numbers only.

The cases that follow already have their self-splicing fitness (ln) on record.
seq	self-splicing fitness (ln)
CAACAGCAAUAUUACGUGCA	-2.72
CGUCAGCAAUAUUACGGCAG	-0.866
ACCCAGCAAUAUUACGCCGG	-3.06
CCUGAGCAAUAUUACGGGCU	-2.51
CUGGAGCAAUAUUACGGCAG	-2.77
UGAUAGCAAUAUUACGGAAU	-2.96

Quick request: self-splicing fitness (ln) for each listed item, please.
1. CCAUAGCAAUAUUACGAUUC
2. UCUGAGCAAUAUUACGAGGA

Ans:
[-3.64, -3.8]

###

Test: self-splicing fitness, log relative to wild type (ln ratio); higher = more splicing; Tetrahymena group I intron in knt gene, E. coli kanamycin selection, DiMSum; sequences stand for … in CUCUCU…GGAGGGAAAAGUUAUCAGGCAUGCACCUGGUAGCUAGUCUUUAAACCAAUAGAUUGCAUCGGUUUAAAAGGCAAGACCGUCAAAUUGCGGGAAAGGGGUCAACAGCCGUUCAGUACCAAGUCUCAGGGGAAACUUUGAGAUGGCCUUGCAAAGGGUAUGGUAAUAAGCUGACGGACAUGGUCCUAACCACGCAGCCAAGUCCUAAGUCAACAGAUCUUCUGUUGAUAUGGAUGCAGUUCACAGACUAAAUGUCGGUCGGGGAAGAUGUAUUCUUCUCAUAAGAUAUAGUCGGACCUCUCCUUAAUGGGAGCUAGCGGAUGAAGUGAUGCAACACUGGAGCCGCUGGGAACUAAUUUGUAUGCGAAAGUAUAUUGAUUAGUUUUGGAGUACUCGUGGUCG
Details: 37 °C
Mark N for self-splicing fitness (ln) values under -2, and Y for everything at or above.

seq	classLabel
CAACAGCAAUAUUACGUCGC	N
ACCUAGCAAUAUUACGAUUC	Y
GAGUAGCAAUAUUACGCUGA	Y
AGAUAGCAAUAUUACGCAAG	Y
CUGAAGCAAUAUUACGAUUA	N

Q: Could you tell me if the measured self-splicing fitness (ln) of ACCUAGCAAUAUUACGCAGG reaches -2 or more?
Ans: N

Q: Given the entry CUUUAGCAAUAUUACGCCCU , answer whether its self-splicing fitness (ln) meets or surpasses -2.
Ans: N

###

Assay: self-splicing fitness, log relative to wild type (ln ratio); higher = more splicing; Tetrahymena group I intron in knt gene, E. coli kanamycin selection, DiMSum; sequences stand for … in CUCUCU…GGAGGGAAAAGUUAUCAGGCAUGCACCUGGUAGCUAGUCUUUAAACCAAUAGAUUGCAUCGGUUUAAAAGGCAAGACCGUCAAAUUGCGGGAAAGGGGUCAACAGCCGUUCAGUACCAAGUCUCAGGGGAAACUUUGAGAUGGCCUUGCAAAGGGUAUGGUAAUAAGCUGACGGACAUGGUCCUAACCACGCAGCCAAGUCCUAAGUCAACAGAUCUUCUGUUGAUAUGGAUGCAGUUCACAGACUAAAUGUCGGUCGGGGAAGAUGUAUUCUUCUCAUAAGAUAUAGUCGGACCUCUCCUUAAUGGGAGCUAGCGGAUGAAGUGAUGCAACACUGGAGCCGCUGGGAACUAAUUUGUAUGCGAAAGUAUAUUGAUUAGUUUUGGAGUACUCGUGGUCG
Details: 37 °C
valueKind: self-splicing fitness (ln)
One number for each entry.

seq	self-splicing fitness (ln)
UAGCAGCAAUAUUACGGUAA	-1.13
AUCAAGCAAUAUUACGGGUU	-1.22
AUAGAGCAAUAUUACGAAGC	-0.819
UCGAAGCAAUAUUACGCAUU	-2.46
CAGCAGCAAUAUUACGCUGC	-2.36

Record self-splicing fitness (ln) per entry; entries follow.
1. CCUCAGCAAUAUUACGGGAG
2. UCUCAGCAAUAUUACGCCGC
3. CCUAAGCAAUAUUACGAGCU
4. ACUAAGCAAUAUUACGCAGU

Ans:
1: -2.42; 2: -1.52; 3: -1.93; 4: -3.25

###

Please respond with reported self-splicing fitness (ln) for every item in the list.
Test: self-splicing fitness, log relative to wild type (ln ratio); higher = more splicing; Tetrahymena group I intron in knt gene, E. coli kanamycin selection, DiMSum; sequences stand for … in CUCUCU…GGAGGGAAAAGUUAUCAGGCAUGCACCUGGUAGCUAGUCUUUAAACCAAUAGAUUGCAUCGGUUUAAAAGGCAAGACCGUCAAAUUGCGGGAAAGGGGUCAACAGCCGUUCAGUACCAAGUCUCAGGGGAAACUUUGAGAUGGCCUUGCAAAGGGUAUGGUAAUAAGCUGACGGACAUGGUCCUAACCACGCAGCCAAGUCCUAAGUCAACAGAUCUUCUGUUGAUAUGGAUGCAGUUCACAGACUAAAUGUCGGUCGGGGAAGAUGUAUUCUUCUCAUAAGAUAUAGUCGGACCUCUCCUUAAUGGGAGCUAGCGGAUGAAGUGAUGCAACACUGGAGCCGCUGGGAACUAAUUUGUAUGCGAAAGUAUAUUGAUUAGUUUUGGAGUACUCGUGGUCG
Settings: 37 °C
Numbers only.

seq	self-splicing fitness (ln)
ACAAAGCAAUAUUACGACUG	-0.066
UCAUAGCAAUAUUACGCUGG	-2.3
UCCUAGCAAUAUUACGCUAC	-0.883

Working through the 7 sequences below one at a time, give self-splicing fitness (ln) for each.
1. CUCCAGCAAUAUUACGAACA
2. CGAAAGCAAUAUUACGAACG
3. GCCCAGCAAUAUUACGGACA
4. CCGCAGCAAUAUUACGUACC
5. CACGAGCAAUAUUACGGAGU
6. GUGCAGCAAUAUUACGUGCG
7. AGGCAGCAAUAUUACGGCUC

Ans:
[-2.23, -0.291, -0.931, -3.08, -3.69, -2.06, -0.371]
